# Test system: U-937
# PROTOCOL DESCRIPTION: Growth inhibition of human U937 cells by [3H]thymidine incorporation assay
# Assay type: functional, cell-based
# APPLIED CONDITIONS: u-937
pIC50: −log10 of the molar value.
VALUE TYPE: pIC50

# input Given the compound `Cc1cc(=O)oc2cc(O)ccc12` , what is its reported pIC50?
# output < 2.70
